- tgt: human CLDN6 fused to GFP, expressed on engineered HEK293T cells (human) (UniProt P56747)
- experiment: FACS, 293T clone with human CLDN6, 1.5 ug Ab
measured-parameter: FACS signal

binder="AB1-Chim (antibody, V domains shown) VH: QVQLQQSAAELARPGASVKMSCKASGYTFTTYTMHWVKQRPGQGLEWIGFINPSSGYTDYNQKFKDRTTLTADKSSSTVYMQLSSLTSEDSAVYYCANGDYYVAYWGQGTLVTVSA VL: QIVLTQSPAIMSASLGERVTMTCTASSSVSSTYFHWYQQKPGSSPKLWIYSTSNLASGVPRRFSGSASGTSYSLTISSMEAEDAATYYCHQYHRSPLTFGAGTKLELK" measured_parameter="FACS signal" test_value=364000
binder="AB1-6 (antibody, V domains shown) VH: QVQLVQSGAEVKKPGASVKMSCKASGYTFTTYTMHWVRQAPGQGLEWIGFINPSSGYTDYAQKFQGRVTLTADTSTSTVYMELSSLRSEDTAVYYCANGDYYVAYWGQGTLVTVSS VL: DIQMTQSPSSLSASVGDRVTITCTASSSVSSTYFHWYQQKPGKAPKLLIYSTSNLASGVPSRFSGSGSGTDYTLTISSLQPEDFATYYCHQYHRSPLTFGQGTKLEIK" measured_parameter="FACS signal" test_value=227000
